Assay system: Histone deacetylase 3/Nuclear receptor corepressor 2 (HDAC3/NCoR2) (Homo sapiens)
Sequence (O15379 whole entry, the tested form may be a part): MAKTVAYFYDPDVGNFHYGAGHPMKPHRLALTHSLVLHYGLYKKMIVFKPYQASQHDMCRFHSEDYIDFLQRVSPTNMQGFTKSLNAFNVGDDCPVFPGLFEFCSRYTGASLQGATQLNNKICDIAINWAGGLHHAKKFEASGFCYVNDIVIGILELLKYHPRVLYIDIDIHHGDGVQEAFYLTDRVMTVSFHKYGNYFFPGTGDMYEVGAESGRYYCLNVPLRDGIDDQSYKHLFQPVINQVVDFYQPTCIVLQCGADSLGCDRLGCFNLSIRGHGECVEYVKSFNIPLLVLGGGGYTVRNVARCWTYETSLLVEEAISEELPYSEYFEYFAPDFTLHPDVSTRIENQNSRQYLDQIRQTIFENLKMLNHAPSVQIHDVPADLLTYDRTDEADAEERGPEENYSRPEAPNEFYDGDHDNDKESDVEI
Sequence (Q9Y618 whole entry, further chain, the tested form may be a part): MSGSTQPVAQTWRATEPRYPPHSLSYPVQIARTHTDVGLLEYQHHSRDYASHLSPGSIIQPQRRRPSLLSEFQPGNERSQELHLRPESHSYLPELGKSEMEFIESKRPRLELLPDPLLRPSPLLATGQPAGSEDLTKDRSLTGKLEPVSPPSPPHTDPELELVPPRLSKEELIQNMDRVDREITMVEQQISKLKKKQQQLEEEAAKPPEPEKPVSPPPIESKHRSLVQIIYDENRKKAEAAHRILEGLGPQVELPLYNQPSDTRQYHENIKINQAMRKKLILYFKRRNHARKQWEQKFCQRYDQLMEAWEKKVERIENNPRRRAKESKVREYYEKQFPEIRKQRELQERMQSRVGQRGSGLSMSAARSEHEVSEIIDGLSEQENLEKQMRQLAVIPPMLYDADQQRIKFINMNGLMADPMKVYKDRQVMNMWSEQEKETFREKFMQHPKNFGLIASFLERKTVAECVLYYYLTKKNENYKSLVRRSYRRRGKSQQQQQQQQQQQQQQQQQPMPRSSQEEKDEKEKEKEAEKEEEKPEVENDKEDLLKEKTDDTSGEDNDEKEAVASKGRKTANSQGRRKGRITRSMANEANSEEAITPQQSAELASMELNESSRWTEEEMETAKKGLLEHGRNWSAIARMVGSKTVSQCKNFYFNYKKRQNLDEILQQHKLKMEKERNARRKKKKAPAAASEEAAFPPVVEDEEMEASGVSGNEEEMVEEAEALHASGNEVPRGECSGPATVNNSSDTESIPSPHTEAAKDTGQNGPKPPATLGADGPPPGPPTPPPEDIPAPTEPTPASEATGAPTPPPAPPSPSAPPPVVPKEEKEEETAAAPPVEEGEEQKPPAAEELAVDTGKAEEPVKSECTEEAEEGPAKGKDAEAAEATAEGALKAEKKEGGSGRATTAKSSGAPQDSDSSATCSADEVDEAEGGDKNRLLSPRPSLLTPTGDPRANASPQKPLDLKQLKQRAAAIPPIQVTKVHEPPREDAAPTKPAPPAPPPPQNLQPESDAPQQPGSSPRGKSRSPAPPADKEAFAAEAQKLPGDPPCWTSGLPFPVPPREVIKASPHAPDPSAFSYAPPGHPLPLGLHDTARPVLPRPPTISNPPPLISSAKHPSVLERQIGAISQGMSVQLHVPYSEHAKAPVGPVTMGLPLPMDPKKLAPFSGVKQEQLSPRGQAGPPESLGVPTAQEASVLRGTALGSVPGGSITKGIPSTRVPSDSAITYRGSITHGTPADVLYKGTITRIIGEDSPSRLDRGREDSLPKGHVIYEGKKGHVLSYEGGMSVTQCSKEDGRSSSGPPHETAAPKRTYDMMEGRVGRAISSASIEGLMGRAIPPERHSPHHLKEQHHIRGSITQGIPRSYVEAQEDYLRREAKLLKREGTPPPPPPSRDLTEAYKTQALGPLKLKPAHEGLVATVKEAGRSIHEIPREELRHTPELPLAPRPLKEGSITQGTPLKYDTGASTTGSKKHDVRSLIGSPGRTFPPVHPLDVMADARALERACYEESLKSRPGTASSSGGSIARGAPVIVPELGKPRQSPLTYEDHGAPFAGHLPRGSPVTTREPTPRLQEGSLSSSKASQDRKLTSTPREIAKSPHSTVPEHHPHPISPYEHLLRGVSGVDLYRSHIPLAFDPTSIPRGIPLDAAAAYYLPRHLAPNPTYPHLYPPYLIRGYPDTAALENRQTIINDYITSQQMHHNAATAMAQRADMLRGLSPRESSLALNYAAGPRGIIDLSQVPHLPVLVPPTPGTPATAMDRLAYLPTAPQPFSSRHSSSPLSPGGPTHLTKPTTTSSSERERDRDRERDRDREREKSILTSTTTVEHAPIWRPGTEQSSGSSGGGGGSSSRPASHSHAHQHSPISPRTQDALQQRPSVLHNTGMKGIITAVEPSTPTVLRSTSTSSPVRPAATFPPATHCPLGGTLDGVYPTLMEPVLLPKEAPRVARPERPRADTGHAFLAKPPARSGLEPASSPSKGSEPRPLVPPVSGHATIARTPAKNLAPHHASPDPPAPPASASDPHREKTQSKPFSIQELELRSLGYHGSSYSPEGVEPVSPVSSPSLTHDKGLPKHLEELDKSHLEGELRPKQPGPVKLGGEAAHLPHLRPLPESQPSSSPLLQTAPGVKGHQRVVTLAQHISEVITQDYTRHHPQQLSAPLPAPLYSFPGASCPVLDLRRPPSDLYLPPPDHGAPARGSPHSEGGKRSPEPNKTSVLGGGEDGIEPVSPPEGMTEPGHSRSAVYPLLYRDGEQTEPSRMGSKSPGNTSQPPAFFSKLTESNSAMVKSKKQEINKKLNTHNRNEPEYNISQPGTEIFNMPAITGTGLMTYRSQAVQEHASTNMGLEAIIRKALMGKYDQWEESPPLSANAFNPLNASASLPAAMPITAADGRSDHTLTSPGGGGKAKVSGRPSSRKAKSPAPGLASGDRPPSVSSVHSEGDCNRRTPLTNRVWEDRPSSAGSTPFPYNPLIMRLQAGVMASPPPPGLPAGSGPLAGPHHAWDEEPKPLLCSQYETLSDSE
Experimental protocol: Inhibition of human recombinant full length C-terminal His-tagged HDAC3 (1 to 428 residues)/N-terminal GST-tagged NCOR2 (395 to 489 residues) expressed in baculovirus infected Sf9 cells using Ac-peptide-AMC as substrate preincubated for 15 mins followed by substrate addition and measured after 60 mins by fluorescence based assay
Entries annotated with measured pIC50
pIC50 here: minus log base 10 of the concentration, concentration in moles per litre.

Field: example entries. Status: answers known.
>>> df
                         structure_notation                              assay_system  measured_quantity  assay_value
0  CC(C)[C@@H]1NC(=O)[C@]2(C)CSC(=N2)c2csc(n2)CNC(=O)C(F)(F)[C@@H](/C=C/CCS)NC1=O  Histone deacetylase 3/Nuclear receptor corepressor 2 (HDAC3/NCoR2) (Homo sapiens)              pIC50         8.13
1  CC(C)[C@@H]1NC(=O)[C@]2(C)CSC(=N2)c2csc(n2)CNC(=O)C[C@@H](/C=C(\F)CCS)OC1=O  Histone deacetylase 3/Nuclear receptor corepressor 2 (HDAC3/NCoR2) (Homo sapiens)              pIC50         8.49
2  CC(C)[C@@H]1NC(=O)[C@]2(C)CSC(=N2)c2csc(n2)CNC(=O)C[C@H](/C(F)=C/CCS)OC1=O  Histone deacetylase 3/Nuclear receptor corepressor 2 (HDAC3/NCoR2) (Homo sapiens)              pIC50         7.29

# input Give Histone deacetylase 3/Nuclear receptor corepressor 2 (HDAC3/NCoR2) (Homo sapiens) pIC50 for CC(C)[C@@H]1NC(=O)[C@]2(C)CSC(=N2)c2csc(n2)CNC(=O)C[C@@H](/C(F)=C/CCS)NC1=O
# output 8.07

# input Entry to check: CCCCCCCC(=O)SCC/C=C(\F)[C@@H]1CC(=O)NCc2nc(cs2)C2=N[C@@](C)(CS2)C(=O)N[C@@H](C(C)C)C(=O)O1
# output 5.64

# input CC(C)[C@@H]1NC(=O)[C@]2(C)CSC(=N2)c2csc(n2)CNC(=O)C[C@@H](/C=C/C(F)(F)CS)OC1=O , same question.
# output 8.09

* * *

# reported IC50; entries follow
Assay system: Histone deacetylase 1 (Homo sapiens, UniProt Q13547)
Sequence (Q13547 whole entry): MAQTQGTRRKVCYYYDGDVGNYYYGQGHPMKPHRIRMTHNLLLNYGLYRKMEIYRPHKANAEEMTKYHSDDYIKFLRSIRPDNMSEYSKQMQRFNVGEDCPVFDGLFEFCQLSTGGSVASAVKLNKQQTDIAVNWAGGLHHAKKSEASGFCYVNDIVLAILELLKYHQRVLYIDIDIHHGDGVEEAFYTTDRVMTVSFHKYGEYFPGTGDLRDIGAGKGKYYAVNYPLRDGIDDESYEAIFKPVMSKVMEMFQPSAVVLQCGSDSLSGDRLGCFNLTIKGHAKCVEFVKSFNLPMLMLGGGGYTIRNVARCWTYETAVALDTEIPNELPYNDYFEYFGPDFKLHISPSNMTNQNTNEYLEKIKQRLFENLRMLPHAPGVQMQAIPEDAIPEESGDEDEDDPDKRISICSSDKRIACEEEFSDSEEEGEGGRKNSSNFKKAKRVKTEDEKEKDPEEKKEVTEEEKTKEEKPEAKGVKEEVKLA
Experimental protocol: Inhibition of recombinant full length C-terminal FLAG/His-tagged human HDAC1 expressed in baculovirus infected Sf9 cells using Ac-peptide-AMC as substrate preincubated for 15 mins followed by substrate addition and measured after 60 mins by fluorescence based assay
Numbers only here, please. The scale is nM.

Check out these entries, answers already filled in.
>>> df
                         structure_notation  assay_value
0  CC(C)[C@@H]1NC(=O)[C@]2(C)CSC(=N2)c2csc(n2)CNC(=O)C(F)(F)[C@@H](/C=C/CCS)NC1=O         6.31
1  CC(C)[C@@H]1NC(=O)[C@]2(C)CSC(=N2)c2csc(n2)CNC(=O)C[C@@H](/C=C(\F)CCS)OC1=O         0.46
2  CC(C)[C@@H]1NC(=O)[C@]2(C)CSC(=N2)c2csc(n2)CNC(=O)C[C@@H](/C(F)=C/CCS)NC1=O          2.9
3  CC(C)[C@@H]1NC(=O)[C@]2(C)CSC(=N2)c2csc(n2)CNC(=O)C[C@@H](/C=C/C(F)(F)CS)OC1=O         11.9

From here, focus on the item given below.
# input Value lookup for IC50; key = CC(C)[C@@H]1NC(=O)[C@]2(C)CSC(=N2)c2csc(n2)CNC(=O)C[C@H](/C(F)=C/CCS)OC1=O
# output 78.5
